Source of measurements: PubChem BioAssay AID1030

target desc: Aldehyde dehydrogenase 1A1 (Homo sapiens) (UniProt P00352)
Sequence (P00352 whole entry, looked up): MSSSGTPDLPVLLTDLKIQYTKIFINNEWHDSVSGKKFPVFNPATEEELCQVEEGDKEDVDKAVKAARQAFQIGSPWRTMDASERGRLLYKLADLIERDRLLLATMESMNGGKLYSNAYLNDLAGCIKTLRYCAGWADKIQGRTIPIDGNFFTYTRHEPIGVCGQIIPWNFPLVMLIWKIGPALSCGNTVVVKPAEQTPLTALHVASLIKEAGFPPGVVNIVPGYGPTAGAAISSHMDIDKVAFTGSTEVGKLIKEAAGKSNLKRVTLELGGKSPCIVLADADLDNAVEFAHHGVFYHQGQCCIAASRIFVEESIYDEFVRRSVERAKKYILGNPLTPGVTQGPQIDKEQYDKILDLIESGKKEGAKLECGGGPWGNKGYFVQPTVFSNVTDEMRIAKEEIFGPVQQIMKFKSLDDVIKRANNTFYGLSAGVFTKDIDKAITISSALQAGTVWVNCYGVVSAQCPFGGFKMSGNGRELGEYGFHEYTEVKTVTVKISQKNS
method notes: qHTS Assay for Inhibitors of Aldehyde Dehydrogenase 1 (ALDH1A1);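 further: plate controls were no enzyme wells and a reference inhibitor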
run parameters: Purified ALDH1A1, NADH fluorescence, propionaldehyde substrate; series mostly up to 75.3 µM
Screen size: about 220,000 compounds; about 16,000 (7.3%) were called active. Roughly 25% stayed inconclusive and do not appear here. The call rests on the fitted dose curve; in most records, active means well fitted inhibition curve with a large enough effect (not every such curve was filed as active); inconclusive means small, poorly fitted or top-dose-only effect, or another doubt; inactive means no such curve, though single readings can be large or run the other way. Many of the other results were omitted from the sample, so actives are more common in it than they were.
Reply using exactly one outcome from 1.0 for active, 0.0 for inactive

Example results:
[[record]]
compound = "O=C(O)c1ccc(Cl)c(S(=O)(=O)Nc2ccccc2Cl)c1"
group = 0.0

[[record]]
compound = "CSC1=N/C(=C\\c2ccc3c(c2)OCO3)C(=O)S1"
group = 0.0

[[record]]
compound = "CNC(=O)c1ccc(NC(=O)c2cccc(C(F)(F)F)c2)cc1"
group = 0.0


query: Please indicate how the test categorized `S=C(NN=C1CCN(Cc2ccccc2)CC1)NC1CCCCC1` .
result: 0.0

query: Likewise for `O=C(Nn1cnnc1)c1ccc([N+](=O)[O-])cc1` ?
result: 0.0
